Kindly supply the reported Phage binding ELISA, Anti-CD28 Fab signal values for the records listed here.
- measured_on: T1, Anti-CD28 Fab (SEQ ID NOs: 696, 697)
- T1 construct: Biotinylated and captured on neutravidin coated plates in the phage ELISA
- method_notes: phage ELISA; biotinylated anti-CD28 Fab on neutravidin plates, clonal phage supernatant, anti-M13 HRP detection
Answers are plain numbers.

{"binder": "YCDGHAIEYMAKCL (Tested as clonal phage supernatant) [Phage-896 (Peptide-87 library clone, YCDGHAIEYMAKCL)]", "observed_measurement": 1.69}

List reported Phage binding ELISA, Anti-CD28 Fab signal for each of these binders:
1. YCDGHSTEYMEKCL (Tested as clonal phage supernatant) [Phage-903 (Peptide-87 library clone, YCDGHSTEYMEKCL)]
2. YCAGHLQEYMQKCL (Tested as clonal phage supernatant) [Phage-895 (Peptide-87 library clone, YCAGHLQEYMQKCL)]
3. YCDGHSEQYMSKCL (Tested as clonal phage supernatant) [Phage-901 (Peptide-87 library clone, YCDGHSEQYMSKCL)]

Response:
[1.68, 1.69, 1.68]
